studyTarget: full-length human Mineralocorticoid Receptor (MR) (Homo sapiens, UniProt P08235)
Sequence (P08235 whole entry): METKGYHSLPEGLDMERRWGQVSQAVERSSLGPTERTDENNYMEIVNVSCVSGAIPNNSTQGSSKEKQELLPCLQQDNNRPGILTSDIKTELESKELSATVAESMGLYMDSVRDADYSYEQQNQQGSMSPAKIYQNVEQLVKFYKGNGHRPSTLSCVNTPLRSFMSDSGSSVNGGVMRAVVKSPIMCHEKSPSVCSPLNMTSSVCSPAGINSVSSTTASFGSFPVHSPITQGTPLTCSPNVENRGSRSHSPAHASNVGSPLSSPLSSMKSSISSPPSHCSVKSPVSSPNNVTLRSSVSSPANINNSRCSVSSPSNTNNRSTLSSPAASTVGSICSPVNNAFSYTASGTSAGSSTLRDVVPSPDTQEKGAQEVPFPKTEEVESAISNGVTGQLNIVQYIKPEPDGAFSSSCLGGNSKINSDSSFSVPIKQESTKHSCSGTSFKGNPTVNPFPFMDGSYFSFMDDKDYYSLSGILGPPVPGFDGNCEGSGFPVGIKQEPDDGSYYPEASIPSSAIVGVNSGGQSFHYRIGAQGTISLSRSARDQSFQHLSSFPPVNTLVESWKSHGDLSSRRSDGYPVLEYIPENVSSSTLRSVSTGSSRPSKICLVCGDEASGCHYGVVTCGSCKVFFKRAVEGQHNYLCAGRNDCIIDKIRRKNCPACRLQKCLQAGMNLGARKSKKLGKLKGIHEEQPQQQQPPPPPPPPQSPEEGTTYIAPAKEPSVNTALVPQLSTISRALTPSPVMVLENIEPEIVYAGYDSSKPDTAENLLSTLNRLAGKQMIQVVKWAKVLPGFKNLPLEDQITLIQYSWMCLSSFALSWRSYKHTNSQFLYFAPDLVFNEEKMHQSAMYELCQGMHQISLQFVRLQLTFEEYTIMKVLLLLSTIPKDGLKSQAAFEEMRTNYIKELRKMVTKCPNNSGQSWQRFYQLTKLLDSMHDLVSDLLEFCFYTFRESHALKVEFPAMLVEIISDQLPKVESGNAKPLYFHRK
methodNotes: human MR NH Pro assay (PathHunter Protein:Protein interaction assay), MR antagonism
assayConditions: IP = inflection point of the dose-response curve; CHO-K1 cells overexpressing human MR, aldosterone about 0.3 nM to about 1 nM, 6 hours at 37° C.
readoutName: IC50 (µM)
Numbers only here, please. The scale is µM.

Examples with their reported IC50 follow.
- compound: "CC(O)C(CC(F)F)(c1ccc(C(F)(F)F)cc1)n1ncc2c(NS(C)(=O)=O)cccc21 (single isomer, unassigned) [Compound 35]"
  IC50, µM: 0.05
- compound: "CCC(c1ccc(C(F)(F)F)cc1)(C(O)C(F)F)n1ncc2c(NS(C)(=O)=O)cccc21 (single isomer, unassigned) [Compound 48]"
  IC50, µM: 0.006
- compound: "CCC(c1ccc(S(F)(F)(F)(F)F)cc1)(C(C)O)n1ncc2c(NS(C)(=O)=O)cccc21 (single isomer, unassigned) [Compound 22]"
  IC50, µM: 3.81

**Query** Given CC(O)C(CC(F)F)(c1ccc(C(F)(F)F)cc1)n1ncc2c(NS(C)(=O)=O)cccc21 (single isomer, unassigned) [Compound 38] , state its recorded IC50.
**Result** 0.596

**Query** Follow-up entry: CS(=O)(=O)Nc1cccc2c1cnn2C(CC(F)F)(C(N)=O)c1ccc(C(F)(F)F)cc1 (single isomer, unassigned) [Compound 46]
**Result** 0.076

**Query** Follow-up entry: CCC(c1ccc(S(F)(F)(F)(F)F)cc1)(C(C)O)n1ncc2c(NS(C)(=O)=O)cccc21 (single isomer, unassigned) [Compound 23]
**Result** 4.74

* * *

methodNotes: PK profile in rats
Type: in vivo, rat
assayConditions: po
readoutName: AUCN po (µM·kg·h/mg)
Numbers only here, please. The scale is µM·kg·h/mg.

- molecule: "CC(O)C(CC(F)F)(c1ccc(C(F)(F)F)cc1)n1ncc2c(NS(C)(=O)=O)cccc21 (single isomer, unassigned) [Compound 35]"
  quantityUnit: "µM·kg·h/mg"
  measured: 2.7
- molecule: "CCC(c1ccc(C(F)(F)F)cc1)(C(O)C(F)F)n1ncc2c(NS(C)(=O)=O)cccc21 (single isomer, unassigned) [Compound 47]"
  quantityUnit: "µM·kg·h/mg"
  measured: 8.9
- molecule: "CS(=O)(=O)Nc1cccc2c1cnn2C(CC(F)F)(C(N)=O)c1ccc(C(F)(F)F)cc1 (single isomer, unassigned) [Compound 46]"
  quantityUnit: "µM·kg·h/mg"
  measured: 1.9
- molecule: "CCC(c1ccc(Br)cc1)(C(C)O)n1ncc2c(NS(C)(=O)=O)cccc21 (single isomer, unassigned) [Compound 2]"
  quantityUnit: "µM·kg·h/mg"
  measured: 1.0
- molecule: "CCC(c1ccc(C(F)(F)F)cc1)(C(C)O)n1ncc2c(NS(C)(=O)=O)cc(F)cc21 (single isomer, unassigned) [Compound 31]"
  quantityUnit: "µM·kg·h/mg"
  measured: 4.0

API: the following record is the query input.
**Query** Given CCC(O)C(CC)(c1ccc(C(F)(F)F)cc1)n1ncc2c(NS(C)(=O)=O)cccc21 (single isomer, unassigned) [Compound 9] , state its recorded AUCN po.
**Result** 1.3

* * *

methodNotes: Hepatocyte stability, rhesus monkey
Assay type: in vitro ADME
assayConditions: hepatocytes, read-out: Hepatocyte Stability (t1/2)
readoutName: half-life

Examples with their reported half-life follow.
- compound: "CS(=O)(=O)Nc1cccc2c1cnn2C(CC(F)F)(C(N)=O)c1ccc(C(F)(F)F)cc1 (single isomer, unassigned)"
  half-life: "> 1.5 h"
- compound: "CCC(O)C(CC)(c1ccc(C(F)(F)F)cc1)n1ncc2c(NS(C)(=O)=O)cccc21 (single isomer, unassigned)"
  half-life: "> 1.5 h"
- compound: "CCC(c1ccc(C(F)(F)F)cc1)(C(C)O)n1ncc2c(NS(C)(=O)=O)cc(F)cc21 (single isomer, unassigned)"
  half-life: "> 1.5 h"
- compound: "CCC(c1ccc(Br)cc1)(C(C)O)n1ncc2c(NS(C)(=O)=O)cccc21 (single isomer, unassigned)"
  half-life: "0.933 h"
- compound: "CCC(c1ccc(C(F)(F)F)cc1)(C(O)C(F)F)n1ncc2c(NS(C)(=O)=O)cccc21 (single isomer, unassigned)"
  half-life: "> 1.5 h"

API: the following record is the query input.
**Query** Given CC(O)C(CC(F)F)(c1ccc(C(F)(F)F)cc1)n1ncc2c(NS(C)(=O)=O)cccc21 (single isomer, unassigned) , state its recorded half-life.
**Result** > 1.5 h
